Data provenance: patent US20090098112A1

Molecular target: T1, recombinant human integrin α5β1 (R&D) (human, UniProt P08648 42-995; P05556 21-728)
T1 construct: Bought recombinant heterodimer (R&D); It was used coated on plates and in solution in the phage ELISA, and as analyte or immobilized in BIAcore; also called alpha5beta1; a5b1
T1 sequence (P08648 42-995 limits assumed, chain 1 of 2): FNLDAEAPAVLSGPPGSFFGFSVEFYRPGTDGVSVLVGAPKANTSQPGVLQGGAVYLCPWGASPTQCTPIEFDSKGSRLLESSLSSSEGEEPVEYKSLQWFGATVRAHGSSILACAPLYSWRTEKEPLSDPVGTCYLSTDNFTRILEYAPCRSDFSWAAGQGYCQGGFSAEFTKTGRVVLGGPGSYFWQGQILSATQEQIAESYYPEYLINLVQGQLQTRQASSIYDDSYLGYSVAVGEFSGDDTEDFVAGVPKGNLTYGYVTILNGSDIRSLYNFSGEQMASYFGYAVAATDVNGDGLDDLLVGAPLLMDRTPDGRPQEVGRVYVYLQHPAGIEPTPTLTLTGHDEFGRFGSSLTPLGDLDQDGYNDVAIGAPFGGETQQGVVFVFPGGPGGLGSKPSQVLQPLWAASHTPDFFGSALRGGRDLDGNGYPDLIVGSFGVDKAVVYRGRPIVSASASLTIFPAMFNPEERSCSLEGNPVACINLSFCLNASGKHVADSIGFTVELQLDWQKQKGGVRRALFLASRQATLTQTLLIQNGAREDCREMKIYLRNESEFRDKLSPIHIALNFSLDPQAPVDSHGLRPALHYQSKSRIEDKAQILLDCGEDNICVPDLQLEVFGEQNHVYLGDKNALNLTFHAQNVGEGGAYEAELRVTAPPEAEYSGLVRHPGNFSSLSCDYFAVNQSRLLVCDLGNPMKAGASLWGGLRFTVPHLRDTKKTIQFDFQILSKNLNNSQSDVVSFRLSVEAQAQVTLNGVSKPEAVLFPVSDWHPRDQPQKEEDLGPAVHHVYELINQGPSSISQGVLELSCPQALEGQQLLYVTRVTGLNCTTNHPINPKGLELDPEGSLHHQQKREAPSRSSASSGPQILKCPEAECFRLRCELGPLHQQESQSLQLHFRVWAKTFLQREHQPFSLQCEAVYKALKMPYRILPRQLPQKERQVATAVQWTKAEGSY
T1 sequence (P05556 21-728 limits assumed, chain 2 of 2): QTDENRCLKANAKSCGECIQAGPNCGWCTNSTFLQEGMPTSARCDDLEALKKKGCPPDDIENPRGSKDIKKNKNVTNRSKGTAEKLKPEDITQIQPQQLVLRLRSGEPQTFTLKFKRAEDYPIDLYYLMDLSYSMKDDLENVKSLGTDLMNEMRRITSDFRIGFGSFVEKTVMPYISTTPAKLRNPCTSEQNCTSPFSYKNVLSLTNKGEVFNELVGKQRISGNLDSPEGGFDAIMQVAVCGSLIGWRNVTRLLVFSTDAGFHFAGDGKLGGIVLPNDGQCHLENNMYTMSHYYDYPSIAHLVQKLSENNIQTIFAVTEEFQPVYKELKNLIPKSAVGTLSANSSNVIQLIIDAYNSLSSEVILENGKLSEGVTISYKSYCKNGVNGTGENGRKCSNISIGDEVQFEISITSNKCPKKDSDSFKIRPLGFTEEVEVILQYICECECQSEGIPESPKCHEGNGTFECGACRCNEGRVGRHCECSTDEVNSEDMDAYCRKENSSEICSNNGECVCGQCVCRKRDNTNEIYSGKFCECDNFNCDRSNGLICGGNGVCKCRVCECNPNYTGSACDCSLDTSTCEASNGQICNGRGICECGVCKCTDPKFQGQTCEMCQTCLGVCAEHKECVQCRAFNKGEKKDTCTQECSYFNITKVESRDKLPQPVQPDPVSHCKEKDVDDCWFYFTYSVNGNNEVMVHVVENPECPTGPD
Experiment: phage competition ELISA: Fab-phage incubated with serially diluted soluble human integrin α5β1, unbound phage captured on plate-coated integrin α5β1, anti-M13-HRP, A450
Measurement type: IC50 (read off the curve) (nM)
Give a bare numeral; the unit nM is implied.

// returns reported IC50 (read off the curve) for input N28S(L1)+N92S(L3)+N54S/N60A/N62A/N65S(H2) (Fab, part only; not given: VH end, constant domains, phage fusion, V domains shown, not shown: another chain or arm of the molecule; large carriers) VL: DIQMTQSPSSLSASVGDRVTITCKASQSVGSDVAWYQQKPGKAPKTLIYSTSYRYSGVPSRFSGSGSGTDFTLTISSLQPEDFATYYCQQYSSYPFTFGQGTKVEIK VH: EVQLVESGGGLVQPGGSLRLSCAASGYTFTDYYLYWVRQAPGKGLEWIGGISPSSGGTTFADAFESKATLSVDKSKNTAYLQMNSLRAEDTAVYYCTRDAYGDWYFDVWGQGT
0.04

// returns reported IC50 (read off the curve) for input CDR-L1:N28A (Fab, part only; not given: VH end, constant domains, phage fusion, V domains shown, not shown: another chain or arm of the molecule; large carriers) VL: DIQMTQSPSSLSASVGDRVTITCKASQAVGSDVAWYQQKPGKAPKTLIYSTSYRYSGVPSRFSGSGSGTDFTLTISSLQPEDFATYYCQQYNSYPFTFGQGTKVEIK VH: EVQLVESGGGLVQPGGSLRLSCAASGYTFTDYYLYWVRQAPGKGLEWIGGISPSNGGTTFNDNFENKATLSVDKSKNTAYLQMNSLRAEDTAVYYCTRDAYGDWYFDVWGQGT
0.2

// returns reported IC50 (read off the curve) for input HC:A78L (Fab, part only; not given: VH end, constant domains, phage fusion, V domains shown, not shown: another chain or arm of the molecule; large carriers) VL: DIQMTQSPSSLSASVGDRVTITCKASQSVGSDVAWYQQKPGKAPKTLIYSTSYRYSGVPSRFSGSGSGTDFTLTISSLQPEDFATYYCQQYSSYPFTFGQGTKVEIK VH: EVQLVESGGGLVQPGGSLRLSCAASGYTFTDYYLYWVRQAPGKGLEWIGGISPSSGGTTFADAFEGKATLSVDKSKNTLYLQMNSLRAEDTAVYYCTRDAYGDWYFDVWGQGT
0.09

// returns reported IC50 (read off the curve) for input CDR-H2:N54A (Fab, part only; not given: VH end, constant domains, phage fusion, V domains shown, not shown: another chain or arm of the molecule; a dimerising Fc or GST; large carriers) VL: DIQMTQSPSSLSASVGDRVTITCKASQNVGSDVAWYQQKPGKAPKTLIYSTSYRYSGVPSRFSGSGSGTDFTLTISSLQPEDFATYYCQQYNSYPFTFGQGTKVEIK VH: EVQLVESGGGLVQPGGSLRLSCAASGYTFTDYYLYWVRQAPGKGLEWIGGISPSAGGTTFNDNFENKATLSVDKSKNTAYLQMNSLRAEDTAVYYCTRDAYGDWYFDVWGQGT
0.2

// returns reported IC50 (read off the curve) for input HC:G49S (Fab, part only; not given: VH end, constant domains, phage fusion, V domains shown, not shown: another chain or arm of the molecule; large carriers) VL: DIQMTQSPSSLSASVGDRVTITCKASQSVGSDVAWYQQKPGKAPKTLIYSTSYRYSGVPSRFSGSGSGTDFTLTISSLQPEDFATYYCQQYSSYPFTFGQGTKVEIK VH: EVQLVESGGGLVQPGGSLRLSCAASGYTFTDYYLYWVRQAPGKGLEWISGISPSSGGTTFADAFEGKATLSVDKSKNTAYLQMNSLRAEDTAVYYCTRDAYGDWYFDVWGQGT
0.07
